- procedure_summary: qHTS Assay for NPC1 Promoter Activators; note: nearly all actives have a fitted effect of over 60% in size;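 for activation: reporter is driven by a mutant NPC1 promoter; % of control where 0% means no effect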
- condition_details: Huh7 NPC1 promoter luciferase reporter, 24 h; series mostly up to 9.22 µM
The campaign covered roughly 320,000 compounds. About 7,600 (2.4%) were called active. Another 3% or so got no clear call; they are omitted. Calls come from the whole dose curve; as a rule, active = well fitted activation curve with a large enough effect; inconclusive = small, poorly fitted or top-dose-only effect; inactive = no such curve, though single readings can be large or run the other way. The full list was thinned out, with actives kept by preference.
I would appreciate it if you answered using one of these outcomes: class 1 = active, class 0 = inactive

What call does the record list for "O=C(Nc1ccc(NC(=O)c2cccs2)cn1)c1ccco1" ? class 1

What call does the record list for "Cc1cccc(-c2oc3ccc(-c4ccc5c(c4)OCO5)cc3c2C#Cc2cncn2C)c1" ? class 0

What call does the record list for "CC(=O)NCc1ccc(-c2csc(NC(=O)CCCc3nc4ccccc4c(=O)[nH]3)n2)cc1" ? class 0

What call does the record list for "O=C(Nc1ccccc1)c1ccco1" ? class 0

What call does the record list for "O=c1c2ccccc2ncn1/N=C/c1ccccc1" ? class 1

What call does the record list for "O=C1C=C(c2cccc(Br)c2)C[C@@H](c2ccc(F)cc2)C1" ? class 0

What call does the record list for "Cc1cc(C#N)c(SCC(N)=O)nc1-c1ccc(F)cc1" ? class 0

What call does the record list for "Cc1nc(COc2cccc(Cl)c2)sc1C(=O)/C=C/N(C)C" ? class 0

What call does the record list for "CCCc1nc2ccccc2c(=O)n1/N=C/c1ccc(O)c(O)c1" ? class 0

What call does the record list for CCOC(=O)C1=C(COC(=O)[C@H](C)NS(=O)(=O)c2ccccc2F)NC(=O)NC1C (stereo not given in full) ? class 0

What call does the record list for "Cc1ccc(NC(=O)C2(N3CCC3=O)CCCCC2)cc1" ? class 0

What call does the record list for "Cc1ccc(C(=O)Nc2ccc(C)c(S(=O)(=O)N(C)C)c2)s1" ? class 1

What call does the record list for "CC(=O)Nc1ccc(S(=O)(=O)Nc2cccc(NC(=O)C(C)(C)C)c2)cc1" ? class 0

What call does the record list for CC1CCCC(NC(=O)c2cc(S(=O)(=O)N3CCCCC3)ccc2Cl)C1C (stereo not given) ? class 0

What call does the record list for "CCCc1c(C(=O)O)cnn1-c1ccc(Cl)cc1" ? class 0

What call does the record list for CCOC(=O)c1ccc(NC(=O)C2CC(=O)N(c3ccc4c(c3)OCCO4)C2)cc1 (stereo not given) ? class 0

What call does the record list for "NC(=O)NCCCC(=O)O" ? class 0

What call does the record list for "Cc1nc(-c2ccccc2)sc1C(=O)/C=C/N(C)C" ? class 1

What call does the record list for CC(NC(=O)CN(C)S(=O)(=O)c1ccc(F)cc1)C1CC2CCC1C2 (stereo not given) ? class 0

What call does the record list for "CCCNC(=O)CCc1c(C)nc2c(c(C)nn2-c2ccc(C)cc2)c1C" ? class 0

What call does the record list for "COCCn1c(C)cc(C(=O)CSc2nnc(C3CC3)n2C2CC2)c1C" ? class 0

What call does the record list for "Cc1cc2c(=O)n(C)c(SCC(=O)c3cc4ccccc4o3)nc2s1" ? class 0

What call does the record list for COc1ccc(C(=O)OC(C)C(=O)NC2CCCC2)cc1S(=O)(=O)N1CCOCC1 (stereo not given) ? class 0

What call does the record list for "Nc1ncc(-c2cc3ccccc3oc2=O)s1" ? class 1

What call does the record list for "CN(CC(=O)NC1CCN(Cc2ccccc2)CC1)S(=O)(=O)c1ccc(Cl)s1" ? class 0

What call does the record list for "Cc1ccnc(NC(=O)c2ccc(NC(=O)c3ccco3)cc2)c1" ? class 1

What call does the record list for "O=C(Nc1ccc(O)cc1)c1ccc(NC(=O)c2ccco2)cc1" ? class 0

What call does the record list for "O=C(NCc1cccnc1)c1cccc(-c2cc3ccccc3oc2=O)c1" ? class 0

What call does the record list for "CCCCCC(=O)Nc1ccc(-c2cn3cccnc3n2)cc1" ? class 0

What call does the record list for "Cc1cccc(C(=O)NCC(=O)OCC(=O)N(C)CC(=O)Nc2ccccc2Cl)c1" ? class 0

What call does the record list for "COC(=O)C1CCN(C(=O)c2cc(=O)[nH]c3ccccc23)CC1" ? class 0

What call does the record list for "CSc1ccccc1C(=O)OCC(=O)N1CCN(C(C)=O)CC1" ? class 0

What call does the record list for "CN(C)/C=C/C(=O)c1ccccc1F" ? class 0

What call does the record list for O=C(NCC1CCCO1)c1ccc(S(=O)(=O)Nc2ccc(F)cc2)cc1 (stereo not given) ? class 0

What call does the record list for "Cc1ccc(OCC(=O)N2CCN(S(=O)(=O)c3ccc(Cl)s3)CC2)cc1C" ? class 0

The measurements presented in this section are drawn from PubChem BioAssay AID485313.
